tested on: Staphylococcus aureus; experiment: Antibacterial activity against Staphylococcus aureus; type: functional
Recorded MIC values for a group of compounds are listed next.

Known MIC results, listed for orientation:
compoundString | MIC
COc1c(O)cc2c3c1C[C@@H](C)C[C@H](OC)[C@H](O3)[C@@H](C)/C=C(\C)[C@H](OC(N)=O)[C@@H](OC)CC/C=C(\C)C(=O)N2 | > 200 µg/mL
CO[C@H]1/C=C\C=C(/C)C(=O)NC2=CC(=O)C=C(C2=O)[C@H](OC)[C@@H](C)C[C@H](OC)[C@H](O)[C@@H](C)/C=C(\C)[C@@H]1OC(N)=O | 50 µg/mL
COC1=C2C[C@@H](C)C[C@H](OC)[C@H](O)[C@@H](C)/C=C(\C)[C@H](OC(N)=O)[C@@H](OC)/C=C\C=C(/C)C(=O)NC(=CC1=O)C2=O | > 200 µg/mL

Query :: State its MIC on Staphylococcus aureus: COc1c(O)cc2c3c1C[C@@H](C)C[C@H](OC)[C@H](O3)[C@@H](C)/C=C(\C)[C@H](OC(N)=O)[C@@H](OC)/C=C/C=C(\C)C(=O)N2
Result :: > 200 µg/mL

Query :: // repeat for COc1c(O)cc2c3c1C[C@@H](C)C[C@H](OC)[C@H](O3)[C@@H](C)/C=C(\C)[C@H](OC(N)=O)[C@@H](OC)/C=C\C=C(/C)C(=O)N2 and report
Result :: > 200 µg/mL

Query :: Item: COc1c(O)cc2cc1C[C@@H](C)C[C@H](OC)[C@H](O)[C@@H](C)/C=C(\C)[C@H](OC(N)=O)[C@@H](OC)CC/C=C(\C)C(=O)N2
Result :: > 200 µg/mL

Query :: Record: CO[C@H]1/C=C\C=C(/C)C(=O)NC2=CC(=O)C(O)=C(C[C@@H](C)C[C@H](OC)[C@H](O)[C@@H](C)/C=C(\C)[C@@H]1OC(N)=O)C2=O
Result :: > 200 µg/mL

Query :: Cool, now COc1c(O)cc2c3c1C[C@@H](C)C[C@H](OC)[C@H](O3)[C@@H](C)/C=C(\C)[C@H](OC(N)=O)[C@@H](OC)/C=C\C=C(\C)C(=O)N2
Result :: > 200 µg/mL

Query :: Okay, and COc1c(O)cc2c3c1C[C@@H](C)C[C@H](OC)[C@H](O3)[C@@H](C)/C=C(\C)[C@H](OC(N)=O)[C@@H](OC)C[C@@H](O)/C=C(\C)C(=O)N2 ?
Result :: 50 µg/mL

Query :: Queued: CO[C@H]1C[C@H](C)Cc2cc(cc(O)c2O)NC(=O)/C(C)=C/CC[C@H](OC)[C@@H](OC(N)=O)/C(C)=C/[C@H](C)[C@H]1O
Result :: > 200 µg/mL

###

test system: Human alphaherpesvirus 1; experiment: Antiviral activity against HSV-1 by plaque reduction assay; type: functional, organism-based
readoutType: pIC50
Here pIC50 is given on a logarithmic scale as minus log10 of the concentration in mol/L.

Query :: I am curious: what pIC50 value has been reported for CC[C@H]1/C=C/[C@@H]([C@H](C)O)OC(=O)/C(C)=C/CC(=O)Nc2cc(O)cc3c2O[C@@]2(CC1)CC(=O)[C@@H](C)[C@H]3O2 ?
Result :: 4.72

###

tested on: Shewanella oneidensis; experiment: Antibacterial activity against Shewanella oneidensis MR-1; type: functional
The following compounds are listed with their measured MIC values.

compoundString | MIC
COC1=C2C[C@@H](C)C[C@H](OC)[C@H](O)[C@@H](C)/C=C(\C)[C@H](OC(N)=O)[C@@H](OC)/C=C\C=C(/C)C(=O)NC(=CC1=O)C2=O | > 200 µg/mL
CO[C@H]1/C=C\C=C(/C)C(=O)NC2=CC(=O)C=C(C2=O)[C@H](OC)[C@@H](C)C[C@H](OC)[C@H](O)[C@@H](C)/C=C(\C)[C@@H]1OC(N)=O | > 200 µg/mL
COc1c(O)cc2c3c1C[C@@H](C)C[C@H](OC)[C@H](O3)[C@@H](C)/C=C(\C)[C@H](OC(N)=O)[C@@H](OC)CC/C=C(\C)C(=O)N2 | > 200 µg/mL
COc1c(O)cc2c3c1C[C@@H](C)C[C@H](OC)[C@H](O3)[C@@H](C)/C=C(\C)[C@H](OC(N)=O)[C@@H](OC)C[C@@H](O)/C=C(\C)C(=O)N2 | > 200 µg/mL
COc1c(O)cc2c3c1C[C@@H](C)C[C@H](OC)[C@H](O3)[C@@H](C)/C=C(\C)[C@H](OC(N)=O)[C@@H](OC)/C=C/C=C(\C)C(=O)N2 | > 200 µg/mL

Now take the following compound into account.
Query :: Can you look up MIC on Shewanella oneidensis for CO[C@H]1/C=C\C=C(/C)C(=O)NC2=CC(=O)C(O)=C(C[C@@H](C)C[C@H](OC)[C@H](O)[C@@H](C)/C=C(\C)[C@@H]1OC(N)=O)C2=O ?
Result :: > 200 µg/mL

###

experiment: Cytotoxicity against African green monkey Vero cells assessed as reduction in cell viability; format: cell-based; settings: chlorocebus sabaeus
readoutType: CC50 (µM)
I only need the number, in µM, no unit after it.

Query :: What value of measured CC50 is listed for CC[C@H]1/C=C/[C@@H]([C@H](C)O)OC(=O)/C(C)=C/CC(=O)Nc2cc(O)cc3c2O[C@@]2(CC1)CC(=O)[C@@H](C)[C@H]3O2 ?
Result :: 510

###

Listed next: entries and their corresponding pIC50.
target: Heat shock protein HSP 90-alpha (Homo sapiens); assay: Inhibition of HSP90alpha (unknown origin); details: read-out: IC50
pIC50 is a log-scale quantity: -log10 of the concentration expressed in molar.

# annotated cases, reported pIC50 shown
compoundString | readoutValue
CO[C@H]1C[C@H](C)Cc2cc(cc(O)c2O)NC(=O)/C(C)=C/CC[C@H](OC)[C@@H](OC(N)=O)/C(C)=C/[C@H](C)[C@H]1O | 7.52
CO[C@H]1/C=C\C=C(/C)C(=O)NC2=CC(=O)C(O)=C(C[C@@H](C)C[C@H](OC)[C@H](O)[C@@H](C)/C=C(\C)[C@@H]1OC(N)=O)C2=O | 5.39
COc1c(O)cc2c3c1C[C@@H](C)C[C@H](OC)[C@H](O3)[C@@H](C)/C=C(\C)[C@H](OC(N)=O)[C@@H](OC)C[C@@H](O)/C=C(\C)C(=O)N2 | 4.02
COc1c(O)cc2cc1C[C@@H](C)C[C@H](OC)[C@H](O)[C@@H](C)/C=C(\C)[C@H](OC(N)=O)[C@@H](OC)CC/C=C(\C)C(=O)N2 | 8.30

Query :: Which pIC50 reading was recorded for the molecule CO[C@H]1/C=C\C=C(/C)C(=O)NC2=CC(=O)C=C(C2=O)[C@H](OC)[C@@H](C)C[C@H](OC)[C@H](O)[C@@H](C)/C=C(\C)[C@@H]1OC(N)=O ?
Result :: 4.51

###

target: Heat shock protein HSP 90-alpha (Homo sapiens); assay: Inhibition of HSP90alpha (unknown origin)
readoutType: IC50

A selection of reference data follows.
compoundString | IC50
CC(=O)O[C@H]1C(=O)[C@@]2(C)[C@H]([C@H](OC(=O)c3ccccc3)[C@]3(O)C[C@H](OC(=O)[C@H](O)[C@@H](NC(=O)c4ccccc4)c4ccccc4)C(C)=C1C3(C)C)[C@]1(OC(C)=O)CO[C@@H]1C[C@@H]2O | Not Active
COc1c(O)cc2c3c1C[C@@H](C)C[C@H](OC)[C@H](O3)[C@@H](C)/C=C(\C)[C@H](OC(N)=O)[C@@H](OC)/C=C/C=C(\C)C(=O)N2 | Not Active
COc1c(O)cc2c3c1C[C@@H](C)C[C@H](OC)[C@H](O3)[C@@H](C)/C=C(\C)[C@H](OC(N)=O)[C@@H](OC)/C=C\C=C(/C)C(=O)N2 | Not Active
COc1c(O)cc2c3c1C[C@@H](C)C[C@H](OC)[C@H](O3)[C@@H](C)/C=C(\C)[C@H](OC(N)=O)[C@@H](OC)/C=C\C=C(\C)C(=O)N2 | Not Active

Okay, now this compound:
Query :: // lookup IC50 for COc1c(O)cc2c3c1C[C@@H](C)C[C@H](OC)[C@H](O3)[C@@H](C)/C=C(\C)[C@H](OC(N)=O)[C@@H](OC)CC/C=C(\C)C(=O)N2
Result :: Not Active

###

experiment: Cytotoxicity against African green monkey Vero cells assessed as reduction in cell viability; format: cell-based; conditions: chlorocebus sabaeus, read-out: MNCC
readoutType: MNTC
Be sure to follow the number with its unit.

Query :: # query: MNTC of entry CC[C@H]1/C=C/[C@@H]([C@H](C)O)OC(=O)/C(C)=C/CC(=O)Nc2cc(O)cc3c2O[C@@]2(CC1)CC(=O)[C@@H](C)[C@H]3O2
Result :: 160 µM

Source: ChEMBL document CHEMBL4619738
